Reference source: BindingDB's records for doi:10.1016/j.bmcl.2004.10.092

Target: Coagulation factor X (Homo sapiens)
Sequence (P00742 41-179 limits assumed): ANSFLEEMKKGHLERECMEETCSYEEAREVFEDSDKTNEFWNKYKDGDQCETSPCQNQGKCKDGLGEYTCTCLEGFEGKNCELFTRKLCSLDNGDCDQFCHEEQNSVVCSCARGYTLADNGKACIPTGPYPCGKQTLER
Sequence (P00742 235-488 limits assumed): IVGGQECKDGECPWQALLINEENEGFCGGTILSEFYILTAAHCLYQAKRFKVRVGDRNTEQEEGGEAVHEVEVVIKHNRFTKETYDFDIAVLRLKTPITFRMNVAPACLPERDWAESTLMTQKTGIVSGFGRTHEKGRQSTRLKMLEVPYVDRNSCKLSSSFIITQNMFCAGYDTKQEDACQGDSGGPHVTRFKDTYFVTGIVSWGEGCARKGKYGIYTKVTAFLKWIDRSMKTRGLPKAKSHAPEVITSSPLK
assay_endpoint: Ki (µM)

[P] COc1cc(C(Nc2ccc(C(=N)N)cc2)C(=O)N[C@H](C(=O)O)c2ccccc2)c(C(=O)Cc2ccccc2)cc1OCc1ccccc1 (some centres not stated)
[Q] COc1cc(C(Nc2ccc(C(=N)N)cc2)C(=O)N[C@H](C(=O)O)c2ccccc2)c(S(=O)(=O)c2ccccc2)cc1OCc1ccccc1 (some centres not stated) [phenylglycine amide compound 10]
Asked: Please indicate which has the smaller reported Ki: P , or Q . Record your answer as the label of the chosen record.
Given back: Q
(Q: 12.4 µM, P: 19 µM)
